Assay: Microsomal stability in mouse liver microsomes assessed as half life preincubated with NADPH measured upto 60 mins by LC-MS analysis
Assay type: ADME, Microsome
Outcome Measure: half-life (h)

{"Compound": "NC(=O)Cc1ccc(N2CC[C@@H]3[C@H]4CCCN4c4ccc(CC(N)=O)cc4[C@@H]32)cc1 (racemic)", "Experimental Value": 3.12}

---

Experiment: Half life in Sprague-Dawley rat at 5 mg/kg, iv measured upto 24 hrs by LC/MS/MS analysis
Format: ADME, organism-based
Conditions: in vivo
In this section we review reported half-life values for a set of compounds.
Outcome Measure: half-life (h)

{"Compound": "COc1ccc2c(c1)[C@H]1[C@H](CCN1Cc1ccc3c(ccn3C)c1)[C@H]1CCCN21 (racemic)", "Experimental Value": 7.6}
{"Compound": "COc1ccc2c(c1)[C@H]1[C@H](CCN1CCc1ccc(Cl)cc1)[C@H]1CCCN21 (racemic)", "Experimental Value": 3.9}

---

In this section we review reported Cmax values for a set of compounds.
Experiment: Cmax in Sprague-Dawley rat at 20 mg/kg, po measured upto 10 hrs by LC/MS/MS analysis
Format: ADME, organism-based
Design: time < 10 hrs, dose 20 mg/kg, route po
Details: in vivo
Outcome Measure: Cmax

{"Compound": "COc1ccc2c(c1)[C@H]1[C@H](CCN1Cc1ccc3c(ccn3C)c1)[C@H]1CCCN21 (racemic)", "Experimental Value": "307 ng/mL"}
{"Compound": "COc1ccc2c(c1)[C@H]1[C@H](CCN1CCc1ccc(Cl)cc1)[C@H]1CCCN21 (racemic)", "Experimental Value": "141 ng/mL"}

---

Assay: Half life in Sprague-Dawley rat at 20 mg/kg, po measured upto 10 hrs by LC/MS/MS analysis
Format: ADME, organism-based
Details: in vivo

{"Compound": "COc1ccc2c(c1)[C@H]1[C@H](CCN1CCc1ccc(Cl)cc1)[C@H]1CCCN21 (racemic)", "Units Label": "h", "half-life": 12.4}
{"Compound": "COc1ccc2c(c1)[C@H]1[C@H](CCN1Cc1ccc3c(ccn3C)c1)[C@H]1CCCN21 (racemic)", "Units Label": "h", "half-life": 11.9}

---

In this section we review reported pEC50 values for a set of molecules.
Tested on: L6
Assay: Induction of glucose uptake in rat L6 myoblasts preincubated for 3 hrs with compound and in presence of 2-deoxyglucose measured after 1 hrs by DNTB reagent based colorimetric assay
Type: functional, cell-based
pEC50: −log10 of the molar value.

{"Molecule": "COc1ccc2c(c1)[C@H]1[C@H](CCN1CCc1ccc(Cl)cc1)[C@H]1CCCN21 (racemic)", "pEC50": 5.57}
{"Molecule": "COc1ccc2c(c1)[C@H]1[C@H](CCN1C(=O)c1ccc3ccccc3c1)[C@H]1CCCN21 (racemic)", "pEC50": 4.46}

---

In this section we review reported bioavailability values for a set of molecules.
Assay: Oral bioavailability in Sprague-Dawley rat at 20 mg/kg measured upto 10 hrs by LC/MS/MS analysis
Type: ADME, organism-based
Details: in vivo

{"Molecule": "COc1ccc2c(c1)[C@H]1[C@H](CCN1Cc1ccc3c(ccn3C)c1)[C@H]1CCCN21 (racemic)", "bioavailability": "9.5%"}
{"Molecule": "COc1ccc2c(c1)[C@H]1[C@H](CCN1CCc1ccc(Cl)cc1)[C@H]1CCCN21 (racemic)", "bioavailability": "19.9%"}

---

Assay: Microsomal stability in monkey liver microsomes assessed as half life preincubated with NADPH measured upto 60 mins by LC-MS analysis
Type: ADME, Macaca mulatta, Microsome
Settings: rhesus monkey
Outcome Measure: half-life (min)

{"Compound": "NC(=O)Cc1ccc(N2CC[C@@H]3[C@H]4CCCN4c4ccc(CC(N)=O)cc4[C@@H]32)cc1 (racemic)", "Outcome Measure": "half-life", "Experimental Value": 34.7}
